# Assay Name: BSK_KF3CT_SRB: Viability Assessment in the BioMAP Diversity Plus: KF3CT Assay (AID 2283069);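 note: total protein by sulforhodamine B staining as a cytotoxicity measure; read 24 h after compound addition; fitted for both signal gain and loss against DMSO baseline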
# Condition Details: primary human keratinocytes with fibroblasts
Calls of active or inactive are those of the source. Rule for the calls: active = hit-call score of the fitted dose curve at least 0.9, where 1 is the maximum; inactive = score below 0.9.
Classes used: 1 (yes) = active, 0 (no) = inactive

>>> class("CC(C)(CO)CO")
"0 (no)"
>>> class("CC(=O)OC(C)(C)C1CC=C(C)CC1 (stereo unspecified)")
"0 (no)"
>>> class("c1ccc(OCCOc2ccccc2)cc1")
"0 (no)"
>>> class("CCOC(=O)CCCCCCCCC(=O)OCC")
"0 (no)"
>>> class("CCCCN(CCO)CCO")
"0 (no)"
>>> class("c1ccc(Sc2ccccc2)cc1")
"1 (yes)"
>>> class("CCCCCCCCCC(=O)OCC")
"0 (no)"
>>> class("C=C(C)C(=O)OCCC(F)(F)C(F)(F)C(F)(F)C(F)(F)C(F)(F)C(F)(F)C(F)(F)C(F)(F)F")
"0 (no)"
>>> class("CC1(C)[C@H](C=C(Cl)Cl)[C@H]1C(=O)OCc1cccc(Oc2ccccc2)c1")
"0 (no)"
>>> class("CCCO[Si](OCCC)(OCCC)OCCC")
"0 (no)"
>>> class("CCn1cc(C(=O)O)c(=O)c2ccc(C)nc21")
"0 (no)"
>>> class("CCOC(=O)C=Cc1ccccc1")
"0 (no)"
>>> class("CCC(=O)OCC=Cc1ccccc1")
"0 (no)"
>>> class("C=C(F)C(=O)OC(C(F)(F)F)C(F)(F)F")
"0 (no)"
>>> class("O=C(O)C(F)(F)C(F)(F)C(F)(F)C(F)(F)C(F)(F)C(F)(F)C(F)(F)C(F)F")
"0 (no)"
>>> class("CC(C)Cc1ccc(C(C)C(=O)O)cc1 (stereo unspecified)")
"0 (no)"
>>> class("C=CC(=O)OCC(CO)(COC(=O)C=C)COC(=O)C=C")
"1 (yes)"
>>> class("CCCCCCCCCCCCS")
"1 (yes)"
>>> class("NC(=O)c1c(Cl)cccc1Cl")
"0 (no)"
>>> class("C[C@]12CC[C@@H]3c4ccc(O)cc4CC[C@H]3[C@@H]1CC[C@@H]2O")
"0 (no)"
>>> class("O=S(=O)(O)C(F)(F)C(F)(F)OC(F)(F)C(F)(F)F")
"0 (no)"

----------
# Assay Target: Nuclear receptor subfamily 4 group A member 2 (Homo sapiens) (UniProt P43354)
# Sequence (P43354 whole entry, looked up): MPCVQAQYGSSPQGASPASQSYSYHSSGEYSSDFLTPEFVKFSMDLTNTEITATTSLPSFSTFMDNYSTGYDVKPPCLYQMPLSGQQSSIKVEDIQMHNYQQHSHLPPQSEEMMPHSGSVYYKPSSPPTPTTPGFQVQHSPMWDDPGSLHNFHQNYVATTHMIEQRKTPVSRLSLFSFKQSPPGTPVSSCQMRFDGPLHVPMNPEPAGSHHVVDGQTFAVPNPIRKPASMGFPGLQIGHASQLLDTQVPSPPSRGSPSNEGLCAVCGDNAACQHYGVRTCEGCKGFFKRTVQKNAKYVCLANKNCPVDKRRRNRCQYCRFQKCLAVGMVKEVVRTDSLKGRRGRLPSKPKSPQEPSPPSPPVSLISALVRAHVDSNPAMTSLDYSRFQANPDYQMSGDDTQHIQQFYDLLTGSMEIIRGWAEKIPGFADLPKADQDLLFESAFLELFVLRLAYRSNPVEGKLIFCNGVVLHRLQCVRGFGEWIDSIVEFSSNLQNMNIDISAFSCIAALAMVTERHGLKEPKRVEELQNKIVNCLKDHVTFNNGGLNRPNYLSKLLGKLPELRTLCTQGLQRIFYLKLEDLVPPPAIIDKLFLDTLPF
# Assay Name: ATG_NURR1_TRANS: Attagene TRANS-FACTORIAL HepG2 Assay for human Nuclear Receptor Related Protein 1 (NURR1) (AID 2282985)
# Condition Details: HepG2 Attagene TRANS reporter, mRNA readout
Inconclusive results are not listed. Active and inactive are the calls of the source. Rule for the calls: active = hit-call score of the fitted dose curve at least 0.9, where 1 is the maximum; inconclusive = response in the unintended direction; inactive = score below 0.9.
Classes used: active, inactive

>>> class("CC12CCC(C1)C(C)(C)C2O (configuration not stated)")
"inactive"
>>> class("COc1ccc(C(C)=O)cc1")
"inactive"
>>> class("CNC(=C[N+](=O)[O-])NCCSCc1ccc(CN(C)C)o1")
"inactive"
>>> class("C=CC(=O)OCCCCCC")
"inactive"
>>> class("CCCCCCCCCCCCOCCOS(=O)(=O)O")
"inactive"
>>> class("CCCc1ccc(O)cc1")
"inactive"
>>> class("C[C@H](CCC(=O)O)[C@H]1CC[C@H]2[C@@H]3CC[C@@H]4C[C@H](O)CC[C@]4(C)[C@H]3CC[C@]12C")
"active"

----------
# Read-out: Matrix Metallopeptidase 1 (MMP1), MMP1 (gene 4312)
# Assay Name: BSK_MyoF_MMP1: BioMAP Diversity Plus: MyoF Assay for Matrix Metallopeptidase 1 (MMP1) Biomarker Activity (AID 2284268)
# Condition Details: primary human lung fibroblasts
Calls of active or inactive are those of the source. How the source made its calls: active means hit-call score of the fitted dose curve at least 0.9, where 1 is the maximum; inactive means score below 0.9.
Classes used: T for active, F for inactive

>>> class("Nc1ccc(N)c([N+](=O)[O-])c1")
"F"
>>> class("O=C(O)C(F)(F)OC(F)(F)C(F)(F)OC(F)(F)C(F)(F)C(F)(F)C(F)(F)F")
"F"
>>> class("OCCN1CCOCC1")
"F"
>>> class("CCCCCCCC1CCCC1=O (stereo unspecified)")
"T"
>>> class("NC(=O)c1c(Cl)cccc1Cl")
"F"
>>> class("C=CC(=O)OCC(CO)(COC(=O)C=C)COC(=O)C=C")
"F"
>>> class("CC1=CC(C)C(C=O)C(C)C1 (stereo unspecified) (tested in a mixture with another compound)")
"F"
>>> class("CCCCCCCCCCCCS")
"T"
>>> class("CC(=O)OC(C)(C)C1CC=C(C)CC1 (stereo unspecified)")
"F"
>>> class("C=C(F)C(=O)OC(C(F)(F)F)C(F)(F)F")
"F"
>>> class("CCC(=O)OCC=Cc1ccccc1")
"F"
>>> class("CC(=O)CCC=C(C)CCC=C(C)C")
"F"
>>> class("c1ccc2c(c1)-c1ccc3ccc4cccc5cc-2c1c3c45")
"T"
>>> class("CC(C)(C)c1cccc(O)c1")
"F"
>>> class("O=C1OC2(c3ccc(O)cc3Oc3cc(O)ccc32)c2ccccc21")
"F"
>>> class("CC(C)Cc1ccc(C(C)C(=O)O)cc1 (stereo unspecified)")
"F"

----------
compounds and their reported AC50
# Assay Target: human Dual Specificity Protein Phosphatase 3 (DUSP3), DUSP3 (gene 1845)
# Assay Name: NVS_ENZ_hDUSP3: NovaScreen (NVS) Enzymatic Assay for human Dual Specificity Protein Phosphatase 3 (DUSP3) (AID 2283152);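 note: phosphatase activity of recombinant human DUSP3 on a fluorogenic substrate without cells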
Activity calls are given as the source filed them. The calls were made as follows: active = hit-call score of the fitted dose curve at least 0.9, where 1 is the maximum; inconclusive = response in the unintended direction; inactive = score below 0.9.
Metric Name: AC50

>>> experimental_result("O=C1OC2(c3ccc(O)cc3Oc3cc(O)ccc32)c2ccccc21")
"23.6 µM (active)"
>>> experimental_result("CC/C=C\\C#N")
"40.4 µM (active)"
>>> experimental_result("O=C(c1ccc(OCCN2CCCCC2)cc1)c1c(-c2ccc(O)cc2)sc2cc(O)ccc12")
"12.6 µM (active)"

----------
# Read-out: Interleukin-1 alpha (IL1a), IL1A (gene 3552)
# Assay Name: BSK_LPS_IL1a: BioMAP Diversity Plus: LPS Assay for Interleukin-1 alpha (IL1a) Biomarker Activity (AID 2283080)
# Condition Details: primary human HUVEC with PBMC; actives raise or lower the signal
# Procedure: BSK_LPS is a cell-based, multiplexed-readout assay that uses umbilical vein endothelium and peripheral blood mononuclear cells, a human vascular primary cell co-culture, with measurements taken at 24 hours after chemical dosing in a 96-well plate.BSK_LPS_IL1a is an assay component measured in the BSK_LPS assay. It measures IL-a antibody related to regulation of gene expression using ELISA technology.Data from the assay component BSK_LPS_IL1a was analyzed into 1 assay endpoint. […]
Activity calls are given as the source filed them. The calls were made as follows: active = hit-call score of the fitted dose curve at least 0.9, where 1 is the maximum; inactive = score below 0.9.
Classes used: 1 = active, 0 = inactive

>>> class("CC(C)CCCC(C)(C)O")
0
>>> class("O=C1OC2(c3ccc(O)cc3Oc3cc(O)ccc32)c2ccccc21")
0
>>> class("CC(=O)CCC=C(C)CCC=C(C)C")
0
>>> class("NC(=O)c1c(Cl)cccc1Cl")
0
>>> class("CCC(=O)OCC=Cc1ccccc1")
0
>>> class("C=CC(=O)OCC(CO)(COC(=O)C=C)COC(=O)C=C")
1
>>> class("O=C(O)C(F)(F)C(F)(F)C(F)(F)C(F)(F)C(F)(F)C(F)(F)C(F)(F)C(F)F")
0
>>> class("c1ccc(Sc2ccccc2)cc1")
1
>>> class("CCCCCCCC1CCCC1=O (stereo unspecified)")
0
>>> class("CC1=CC(C)C(C=O)C(C)C1 (stereo unspecified) (tested in a mixture with another compound)")
0
>>> class("O=C(c1ccc(OCCN2CCCCC2)cc1)c1c(-c2ccc(O)cc2)sc2cc(O)ccc12")
1
>>> class("CCCCN(CCO)CCO")
0
>>> class("CCOC(=O)CCCCCCCCC(=O)OCC")
0
>>> class("CCCCCCCCCC(=O)OCC")
0
>>> class("c1ccc2c(c1)-c1ccc3ccc4cccc5cc-2c1c3c45")
0
>>> class("C=C1CC/C=C(\\C)CC[C@@H]2[C@@H]1CC2(C)C")
1
>>> class("O=S1(=O)CC(Cl)(Cl)C(Cl)(Cl)C1")
1
>>> class("CCn1cc(C(=O)O)c(=O)c2ccc(C)nc21")
0
>>> class("c1ccc(OCCOc2ccccc2)cc1")
0
>>> class("CC(=O)c1ccc(C)cc1")
0
>>> class("COC(=O)c1ccc(C(=O)OC)cc1")
0
>>> class("CCCO[Si](OCCC)(OCCC)OCCC")
0
>>> class("Nc1ccc(N)c([N+](=O)[O-])c1")
0
>>> class("CC(C)Cc1ccc(C(C)C(=O)O)cc1 (stereo unspecified)")
0
>>> class("C#C[C@]1(O)CC[C@H]2[C@@H]3CCc4cc(O)ccc4[C@H]3CC[C@@]21C")
1
>>> class("CC(C)(C)c1cccc(O)c1")
0
